Taken from the nanobody polyreactivity screen of Harvey et al. (2022).

ASSAY COMMENT: yeast display, Sf9 membrane polyspecificity reagent, FACS + sequencing; frameworks hold sequencing errors
QUANTITY: polyreactivity (PSR sort gate)

Here are 5 sequences together with their reported answers.
QVQIVESGGVLVQAGGSLRLSCAASGLTLKRYAMGWYRQAPRKERELVASITGSGGSTYADTVKARFTISRDNAKNTVYLHMNSLNPEDTAVYYCAKDTRYEYVGSEYCFWGQGTQVTVSS; low polyreactivity
QVQLVESGGGLVQAGGSLRLSCAASGFIFLGYGMGWYRQAPGKEREFVAGISWSGGSTYYADSVKGRFTISRDNAKNTVYLQMNSLKPEDTAVYYCNAVVFWGGGDYYWGQGTQVTVSS; low polyreactivity
QVQLVESGGGLVQAGGSLRLSCAASGRTFYDNAMRWYRQAPGKERELDAAITNGGRTNYADSVKGRFTISRDNAKNTVYLQMNSLKPEDTAVYYCAADFWPWYRYYSGGVDYWGQGTQVTVSS; high polyreactivity
QVQLVESGGGLVQAGGSLRLTCAASGSTFVNYTMGWYRQAPGKERELVAAIRYRDGSTYYADSVKGRFTISRDNAKNTVYLQMNSLKPEDTAVYYCNTRITQVGDYIYDYWGQGTQVTVSS; low polyreactivity
QVQLVESGGGLVQAGGSLRLSCAASGFIYPRNTMGWYRQAPGKERELVAAITWIGGRTYYADSVKGRFTISRDNAKNTVYLQMNSLKPEDTAVYYCAADYSVFYDEDYWGQGTQVTVSS; low polyreactivity

Can you look up the measured polyreactivity (PSR sort gate) of QVQLVESGGGLVQAGGSLRLSCAASGLTFEYYTMGWYRQAPGKERELVAAITSSGGSTYYADSVKGRFTISRDNAKNTVYLQMNSLKPEDTAVYYCAADYYTWYGILYDYWGQGTQVTVSS for me?
low polyreactivity

* * *

ASSAY COMMENT: yeast display, Sf9 membrane polyspecificity reagent, FACS + sequencing; frameworks hold sequencing errors
QUANTITY: polyreactivity (PSR sort gate)

QVQLVESGGGLVQAGGSLRLSCAASGPILGQYAMGGYRQAPGKERELVAAITYSGGRTYYADSVKGRFTISRDIAKNTVYLQMNSLKPEDTAVYYCAARGRASVERRGGYYYWGQGTQVTVSS; high polyreactivity
QVQLVESGGGLVQAGGSLRLSCAASGFTLSWYAMGWYRQAPGKERELVATISRGGITYYADSVKGRFTLSRDNANNTVYVQMNSLKPEDTAVYYCAADYRYGWYRYDYWGQGTQVTVSS; high polyreactivity

* * *

ASSAY COMMENT: yeast display, Sf9 membrane polyspecificity reagent, FACS + sequencing; frameworks hold sequencing errors
QUANTITY: polyreactivity (PSR sort gate)

Worked cases, answers included:
QVQLVESGGGLVQAGGSLRLICAASGSTFAYYVMGWYRPAPGTEREFVATITGSGGRTYYADSVKGRFTISRDNAKNTVYLQMISLKPEDTAVYYCAAGVYTGQHEYDYWGQGTQVTVSS; low polyreactivity
QVQLVESGRGLVQAGGSLRLSCAASGRIFYVYAMGWSRTAPGKERELVAAITQSGGRTYYADSVKGRFTISRDNAKNTVYLQMNSLKPEDTAVYYCAATWLGSRNLVHITLYYWGQGTQVTVSS; low polyreactivity
QVQLVESGGGLVQAGGSLRLSCAASGITFTPYALGWSRPAPGKERELVAAISASGGNTYYADSVKGRFTISRDNAKNTVYLQMNSLKPDDTAVYYCAAVVAFATGTYYYWGQGTQVTVSS; high polyreactivity
QVQHVESGGGLVQAGGSLRLSCAASGSTFPYYAMGWYRQAPGNERELVAAISNGVSTYYADSVKGRFTISRDNAKNTVYFHMNCLKQVDTAVYYCAGDFWITTRDIVKWWLYDYWGQGTQVTVSS; low polyreactivity

Requested read-out: polyreactivity (PSR sort gate). Entry: QVQLVESGGGLVQAGGSLRLSCAASGSIFEDNVMGWYRQAPGKEREFVADITAIGGSTYYADSVKGRFTISRDNAKNTVYLQMNSLKPEDTAVDYCAAGFYVDYQLYEYWGQGTQVTVSS
high polyreactivity

* * *

ASSAY COMMENT: yeast display, Sf9 membrane polyspecificity reagent, FACS + sequencing; frameworks hold sequencing errors
QUANTITY: polyreactivity (PSR sort gate)

Worked examples follow.
QVQLVESGGGLVQAGGSLRLSCAASGSIFQAYAMGWYRQAPGKERELVAAITASGTRTYYADSVKGRFTISRDNAQNTVYLQMNSLKPEDTAVYYCAAGTYRWGFGVRSAMDYWGQGTQVTVSS; high polyreactivity
QVQLVESGGGLVQAGGSLRLSCAASGRIFGRYAMGWYRQAPGKERELVAAIPRNGGSTYADSVNGRFTISRDNAKNTVYLQMNILKPEDTAVYYCAKKRGGKKSGPHDYWGQGTQVTVSS; high polyreactivity
QVQLVESGGGLVQAGGSLRLSCAASGRTFAVYAMGWYRQAPGKERELDAAITYGGGRTYYADSVKGRFTISRDNAKNTVYLQMYSLKPEDTAVYYCAADYYGTDYDYWGQGTQVTVSS; low polyreactivity
QVQLVESGGGLVQAGGSLRLSCAASGFTFPGNAMGWYRQAPGKEREFVAAITRSSGSTSYADSVKGRFTISRDNAKNTVYLQMTSLKPEDTAVYRDYWGQGTQVTVSS; low polyreactivity
QVQLVESGGGLVQAGGSLRLSCAASGRILGDYAMGWYRQAPGTEREFVAAIDYNGGSTNYADSVMGRFTISRDNAKNTVYFQMNSLKPEDTAVYYCAKTDGFYRGYGYWGQGTQVTVSS; low polyreactivity
QVQLVESGGGLVQAGGSLRLSCADSGSIIYYAMGWNRQAPGKEREFVAAITKSGGSTYYADSVKGRFTISRDNAKNTVYLQMNSLKPEDTAVYYCAARGTWAGFYYWGQGTQVTVSS; high polyreactivity
QVQLVESGGGLVHAGGSLRLSCAASGRIFTIYAMGWYRQAPGKERELVAAISDRGTRTYYADSVKGRFTISRDNAKNTVYLQMNSLKPEETAVYYCATDALYTYGYDYWGQGTQVTVSS; low polyreactivity
QVQLVESGGGLVQAGGSLRLSCAPSGSIFVTYAMGWYRQAPGKERELVAAISTSGGSTYADSVKGRFTISRVNAKNTVYLQMNSLKPEDTAVYYCNADDPGYAVPWYWFKYDYWGQGTQVTVSS; low polyreactivity

// lookup polyreactivity (PSR sort gate) for QVQLVESGGGLVQAGGSLRLSCAASGRIFNRNAMGWYRQAPGKERELVAAISRSGDNTYYADSVKGRFTISRDNAKNTVYLQMNSLKPEDTAVYYCAKDGSLDAQSYDYDYWGQGTQVTVSS
low polyreactivity

Could you share which polyreactivity (PSR sort gate) value was measured for QVQLVESGGGLVQAGGSLRLSCAASGRIFDGNAMGWYRQAPGKERELVAAISSSGGSTYYADSVKGRFTISRDNAKNTVYLQMNSLKPEDTAVYYCAYPLRRTWGNYRYGYWGQGTQVTVSS ?
high polyreactivity

Need polyreactivity (PSR sort gate), item QVQIVESGGGLVQARGSLRLSFAASGFTFSHYAMGWYRQAPGKERELVAAISASGGRTYFADSVKGRFTISRDNAKNTVYVQMNSLKPEDTAVYYCAAKLYDCGGRYWYVYWGQGTQVTVSS
high polyreactivity

Which polyreactivity (PSR sort gate) value is on record for QVQLVESGGGLVQAGGSLRLSCAASGSTFLPNAMGWYRQAPGKERELVAAISYRGGGTFYADSVKGRFTISRDNAKNTVYLQMNSLKPEDTAVYYCADDWSWFDNFDYWGQGTQVTVSS ?
low polyreactivity

Look up polyreactivity (PSR sort gate): QVQLVESGGGLVQAGGSLRLSCAASGSTFTSNVMGWYRQAPGKERELVAAISQSGGRTYYADSVKGRFTISRDNAKNTVYLQMNSLKPEDTAVYYCAASYVHYHMDYWGQGTQVTVSS
high polyreactivity

Consider the sequence QVQLVESGGGLVQAGGRLRLSCAASGSTFDYYTMGGYRQAPGKERELVAGITSGGSTNYADSVKGRFTISRDNAKNTVYLQMNSLKPADTAVYYCAARVSKYYKPYGYWGQGTQVTVSS and give its measured polyreactivity (PSR sort gate).
high polyreactivity

GET /values?readout=polyreactivity (PSR sort gate)&item= QGQLVESGGGLVQAGGSLRLSCAASGTFSPYAMGWYRPAPGKERELVAVITSNTGRTYADSVKGRFTISRDNAKNTVYLQMNSLKPEDTAVYYCASRSTYRHWYRTGSRFDYWGQGTQVTVSS
low polyreactivity

* * *

ASSAY COMMENT: yeast display, Sf9 membrane polyspecificity reagent, FACS + sequencing; frameworks hold sequencing errors
QUANTITY: polyreactivity (PSR sort gate)

Check out these entries, answers already filled in.
QVQHGESGGGIVQAVVSLRLSCSASGFTFYYYPMGWYRQAPGKERELVAAIDTGGSTNYADSVKGRFTMSRDNAKNTVYLQMNSLKPEDTAVYYCNALQPGLGSPLGEYDYWGQGTQVTVSS; low polyreactivity
QVQLVESGGGLVQAGGSLRLSCAASGFIFGRYARGWYRQAPVKERELVAAINWSGGSTYYADSVKGRFTISRDNAKNTVYLQMNSLKPEDTAVYYCAARTSRRDGGGSYDYWGQGTQVTVSS; high polyreactivity
QVQLVESGGCLVQEGGSLRLSCAASGFTFRWYTMGWYRQAPGKERELVASIRYGGGSTYYADSVKGRFTISRDNAKNTVYLQMNSLKPEDTAVYYCAAYVRTYRGYYWKAFDYWGQGTQVTVSS; high polyreactivity
QVQLVESGGGLVQAGGSLRLSCAASGTTFVHYAMGWYRQAPGKERELVAAISSSGDSTYYADSVKGRFTISRDKAKNTVYLQMNSLKPEDTAVYYCAVRSRTPRAYYYWGQGTQVTVSS; low polyreactivity

Look at this sequence and give its reported polyreactivity (PSR sort gate). QVQLVESGGGLVQAGGSLRLSCAASGIIFIVNAMGWYRQAPGKERELVAAISNGGSTNYADSVKGRFTISRDNAKNTVYLQMNSLKPEDTAVYYCADDYSTWLRAYDYWGQGTQVTVSS
low polyreactivity
